Target: MAb 4082-25-4
Test: Indirect competitive ELISA (assay A), inhibition of MAb 4082-25-4 binding / cross-reactivity
Parameters: species or system BALB/c mouse
Settings: MAb 4082-25-4
readout name: I50 (inhibitor concentration for 50% inhibition in the competitive ELISA)

>>> reported_value("COCC(=O)N(c1c(C)cccc1C)C(C)C(=O)OC (stereo not shown)")
"> 1000 ng/mL"
>>> reported_value("Cc1cccc(C)c1NC(C)C(=O)O (stereo not shown)")
"> 1000 ng/mL"
>>> reported_value("Cc1cccc(C)c1N(C(=O)CO)C(C)C(=O)O (stereo not shown)")
"> 1000 ng/mL"
>>> reported_value("CCc1cccc(C)c1NC(C)COC (stereo not shown)")
"> 1000 ng/mL"
>>> reported_value("COCC(=O)Nc1c(C)cccc1C")
"> 1000 ng/mL"
>>> reported_value("COCC(=O)N(c1c(C)cccc1C)C(C)C(=O)O (stereo not shown)")
"> 1000 ng/mL"
>>> reported_value("CCc1cccc(C)c1N(C(=O)CO)C(C)CO (stereo not shown)")
"> 1000 ng/mL"
>>> reported_value("CCc1cccc(C)c1NC(C)CO (stereo not shown)")
"> 1000 ng/mL"
>>> reported_value("CCc1cccc(C)c1NC(=O)CO")
"> 1000 ng/mL"
>>> reported_value("CCc1cccc(C)c1N(C(=O)CCl)C(C)COC (stereo not shown)")
"0.6 ng/mL"
>>> reported_value("CCc1cccc(CC)c1N(COC)C(=O)CCl")
"> 1000 ng/mL"
>>> reported_value("CCc1cccc(C)c1N(C(=O)CO)C(C)COC (stereo not shown)")
"43 ng/mL"
>>> reported_value("CCc1cccc(C)c1NC(=O)CCl")
"> 1000 ng/mL"
